test system: EKVX NSCLC; test: NCI tumour cell line growth inhibition, 48 h
// values below are reported TGI

molecule: COc1ccc2c(c1)CCC(CN1CCN(CCOC(c3ccc(F)cc3)c3ccc(F)cc3)CC1)C2O (stereo not given)
readout_units: µM
relation: =
TGI: 25.5
//
molecule: COc1ccc2c(c1)C(=O)c1c-2c(OCCN(C)C)nc2cc(OC)ccc12
readout_units: µM
relation: =
TGI: 8.63
//
molecule: COc1ccc(/C=N/NC(=O)c2ccccc2Nc2ccccc2C(=O)N/N=C/c2ccc(OC)cc2)cc1
readout_units: µM
relation: >
TGI: 100
//
molecule: CCN(CC)CCSc1n[nH]c(-c2c[nH]c3nc(C)ccc3c2=O)n1
readout_units: µM
relation: >
TGI: 100
//
molecule: CCc1nc(-n2c(CC)nc3ccccc3c2=O)nc(N)c1-c1ccc(Cl)cc1
readout_units: µM
relation: >
TGI: 100

###

Measured GI50 accompanies every entry in the list below.
system: HL-60(TB) leukemia; test: NCI tumour cell line growth inhibition, 48 h
readout: GI50

molecule: COc1ccc(S(=O)(=O)NC2=NCCN2C(=S)SN2CCn3c2nsc3=S)cc1OC
tgt: HL-60(TB) leukemia
readout: GI50
val: > 100000 nM

molecule: Cc1cc(S(N)(=O)=O)c(S/C(=N\Nc2ccc([N+](=O)[O-])cc2)c2ccc(O)cc2)cc1Cl
tgt: HL-60(TB) leukemia
readout: GI50
val: 1980 nM

molecule: NC(=O)c1ccc2nc(-c3ccc(C4(N)CCC4)cc3)c(-c3ccccc3)n2n1
tgt: HL-60(TB) leukemia
readout: GI50
val: 11500 nM

molecule: COc1ccc2c(c1)C(=O)c1c-2c(OCCN(C)C)nc2cc(OC)ccc12
tgt: HL-60(TB) leukemia
readout: GI50
val: 1980 nM

molecule: CC(C)(C)OC(=O)N1CC(Cn2cc(C(F)(F)F)c3c(Cl)ncnc32)C1
tgt: HL-60(TB) leukemia
readout: GI50
val: 2370 nM

molecule: O=C(CCc1ccco1)NC1CCN(CC2(c3ccc(Cl)cc3)CCC2)CC1
tgt: HL-60(TB) leukemia
readout: GI50
val: 15500 nM

molecule: FC(F)(F)c1[nH]ncc1-c1nc2c(N3CCCCC3)cc3[nH]ncc3c2c2c1CCCC2
tgt: HL-60(TB) leukemia
readout: GI50
val: 1230 nM

molecule: COc1nc2c(cc1S(=O)(=O)c1ccccc1)CCc1c-2cnn1Cc1ccccc1
tgt: HL-60(TB) leukemia
readout: GI50
val: 2950 nM

molecule: COc1ccccc1-c1ccc2nc(NC(=O)Nc3cc(C(F)(F)F)cc(C(F)(F)F)c3)sc2c1
tgt: HL-60(TB) leukemia
readout: GI50
val: 2010 nM

molecule: O=C1c2ccc3c4c(ccc(c24)C(=O)N1CCCNCc1ccccc1)C(=O)N(CCCNCc1ccccc1)C3=O
tgt: HL-60(TB) leukemia
readout: GI50
val: 163 nM

molecule: COc1cc(C(C)(C)C)cc(OC)c1C(O)(c1c(OC)cc(C(C)(C)C)cc1OC)c1c(OC)cc(C(C)(C)C)cc1OC
tgt: HL-60(TB) leukemia
readout: GI50
val: 140 nM

molecule: Cc1cc(C(=O)N[C@@H](CCC(=O)O)C(=O)O)sc1CC[C@@H]1CNc2nc(N)[nH]c(=O)c2C1
tgt: HL-60(TB) leukemia
readout: GI50
val: < 12.4 nM

molecule: CN1C(=O)N(C)C2C1NN=c1s/c(=C\c3c[nH]c4ccccc34)c(=O)n12 (centres undefined)
tgt: HL-60(TB) leukemia
readout: GI50
val: 30.5 nM

molecule: O=C(C[C@@]1(O)C(=O)Nc2c(Cl)ccc(Cl)c21)c1ccc(C2CC2)cc1
tgt: HL-60(TB) leukemia
readout: GI50
val: 263 nM

molecule: O=c1c2[nH]c3ccccc3c2nc2n1CCS2
tgt: HL-60(TB) leukemia
readout: GI50
val: 17500 nM

molecule: COc1ccc(C2=CC(c3ccc(Oc4ccnc5cc(Cl)ccc45)c(OC)c3)c3c(nc(OC)[nH]c3=O)N2)cc1 (centres undefined)
tgt: HL-60(TB) leukemia
readout: GI50
val: 3510 nM

molecule: COc1cccc2c1C(=O)c1c(O)c3c(c(O)c1C2=O)C[C@@](O)(C(=O)CO)C[C@@H]3OC1CC(OC(C)=O)C(OC(C)=O)C(C)O1 (some centres undefined)
tgt: HL-60(TB) leukemia
readout: GI50
val: 235 nM

molecule: COc1cc(-c2nc3ccccc3[nH]2)ccc1OCC(=O)N=Nc1c(O)[nH]c2ccc(Cl)cc12
tgt: HL-60(TB) leukemia
readout: GI50
val: 1930 nM

molecule: C=C(C)[C@@H]1CC[C@]2(C(=O)Nc3ccccn3)CC[C@]3(C)[C@H](CC[C@@H]4[C@@]5(C)CCCNC(C)(C)[C@@H]5CC[C@]43C)[C@@H]12
tgt: HL-60(TB) leukemia
readout: GI50
val: 1820 nM
